For each record, write down the corresponding EC50.
- Experiment Summary: NIH3T3 cell viability loss – ATP luminescence, mouse fibroblasts, counter-screen, dose response (AID 2010);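 also: cells exposed to compound for about 90 hours before reading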
- Format: functional, cell-based
Calls of active or inactive are those of the source. Rule as the data show it: actives have a measured EC50 and inactives only a lower limit.

Note to self: EC50 recorded for Cc1ccnc(NC(=O)c2ccc([N+](=O)[O-])s2)c1 was > 60 µM (not active)

Reported EC50 of O=C(CCSc1ccc(Cl)cc1)N1CCN(c2ccc(O)cc2)CC1 : 6.9 µM (active)

What the record says about Nc1nc(-c2ccccn2)nc(N)c1Cc1c(F)cccc1Cl : EC50 is 5.25 µM (active)

The recorded EC50 for COc1ccc(C(=O)c2ccc(N3CCN(C(=O)c4ccc(F)cc4)CC3)c(F)c2)cc1Br is 8.95 µM (active)

get_value(item= CCOc1cc(-c2nc(-c3cc([N+](=O)[O-])ccc3C)c(-c3ccccc3)[nH]2)ccc1O , readout=EC50) returns > 60 µM (inconclusive)

For CC(C)N(CCNC(=O)c1nn(Cc2ccccc2)c(=O)c2ccccc12)C(C)C the compound record lists EC50 as > 60 µM (not active)

For this compound ( CC(C(=O)Nc1ccccc1C(=O)O)n1c(C(F)(F)F)nc2ccccc21 (stereo not drawn) ), measured EC50 is > 60 µM (inconclusive)

Note to self: EC50 recorded for CCCc1nc2ccc(Br)cc2c(=O)n1-c1ccc([N+](=O)[O-])c(C(F)(F)F)c1 was > 60 µM (not active)
